All values here come from PubChem BioAssay (NCI).

Test system: HL-60(TB) leukemia
Experiment: NCI-60 one-dose screen, 48 h (100 = growth as untreated, 0 = no growth, -100 = all killed)
Conditions: 10 µM unless noted
This is part of a sample that, as a whole, favours compounds with a hit. Of some 83,000 tested, about 20% had one in any assay.
MEASURE: growth (%)
# unit: % | format: bare number

Lookup: growth for "Cc1cc(Nc2ccc(OCc3ccccc3)cc2)nc2cc(O)ccc12" ?
Found: -44.4

Lookup: growth for "CCOC(=O)c1cc(-c2ccccc2)nc(N)n1" ?
Found: 101

Lookup: growth for COc1ccc(/C=C/C(c2cc(OC)c(OC)c(OC)c2)n2ccnc2)cc1O (configuration not stated) ?
Found: -36.6

Lookup: growth for "CN(C)c1ccc(/C=C/C(=O)c2ccc(NC(N)=O)cc2)cc1" ?
Found: 87.3

Lookup: growth for O=C(CN1C(=O)S/C(=C\C(Cl)=C\c2ccccc2)C1=O)NC1CCS(=O)(=O)C1 (configuration not stated) ?
Found: 18.6

Lookup: growth for "CCOC(=O)c1ccc(N=Cc2sc(=O)[nH]c2O)cc1" ?
Found: 101

Lookup: growth for "CC/C(=N\N=C(/CC)c1ccc(Br)cc1)c1ccc(Br)cc1" ?
Found: 124

Lookup: growth for COc1cc2c(cc1OC)C(Sc1ccc(Cl)cc1)c1c(nc(N)c(C#N)c1N)O2 (configuration not stated) ?
Found: -25.1

Lookup: growth for CCCCCCCCCCCCCCCC[N+]1(C)CCCC1c1cccnc1 (configuration not stated) ?
Found: 1.61

Lookup: growth for CCCCNC(=O)NS(=O)(=O)c1ccc(N2N=C(c3ccc(C)cc3C)CC2c2ccc(OC)cc2)cc1 (configuration not stated) ?
Found: 17.4

Lookup: growth for "Cc1ccc2nc(-[n+]3cc4ccccc4cc3C)ccc2c1" ?
Found: 0.144

Lookup: growth for "CCN(CC)CCCNC(=O)c1ccc(N)cc1" ?
Found: 76.5

Lookup: growth for "Cc1ccc(-c2csc(NC(=O)c3ccccc3CN3C(=O)c4ccccc4C3=O)n2)cc1" ?
Found: 95.3

Lookup: growth for N#Cc1c(-c2ccccc2)nc(SCC(O)CN2CCOCC2)nc1N1CCOCC1 (configuration not stated) ?
Found: 72.2

Lookup: growth for "Cc1c(-c2ccc(-c3ccccc3F)cc2)nc2ccc(F)cc2c1C(=O)O" ?
Found: 5.22

Lookup: growth for CC1=C(SCCC(=O)OC(C[Se]C2=C(C)C(=O)c3ccccc3C2=O)C(=O)NCCCCCC(=O)OCc2ccccc2)C(=O)c2ccccc2C1=O (configuration not stated) ?
Found: -1.59

Lookup: growth for "NC(CCl)=NCCC[C@H](N)C(=O)O" ?
Found: 104

Lookup: growth for "Cc1c2c(cn1Cc1ccccc1)CCc1cn(C)nc1-2" ?
Found: 63.4

Lookup: growth for "COc1c2occc2c(OC)c2c(=O)c(-c3cc(-c4ccc(F)cc4)c(C#N)c(N)n3)c(C)oc12" ?
Found: 54.7

Lookup: growth for "CC(C)(C)OC(=O)N[C@@H](Cc1ccccc1)C(=O)N(Cc1ccccc1)C1(C(=O)NCc2ccccc2)CCN(Cc2ccccc2)CC1" ?
Found: 7.23

Lookup: growth for "O=c1c2sc3ncc(Br)cc3c2ncn1-c1cccc(Cl)c1" ?
Found: 84.5

Lookup: growth for "S=c1ssnc1-c1cc2ccccc2o1" ?
Found: 78

Lookup: growth for O=c1ccn(C2CC=C(CO)O2)c(=O)[nH]1 (configuration not stated) ?
Found: 91.9

Lookup: growth for "COc1cc(Nc2ccnc(N3CCN(c4ccnc5cc(Cl)ccc45)CC3)n2)cc(OC)c1" ?
Found: -23.7

Lookup: growth for "O=c1cc(-c2ccccc2)[nH]c2ccccc12" ?
Found: 45

Lookup: growth for "Cc1c(Cl)cccc1C(=O)Nc1nc2c(s1)CN(C(=O)Nc1cccc(C(F)(F)F)c1)CC2" ?
Found: 6.4

Lookup: growth for "COc1cnc2c(c1)C(=O)c1c-2n(CCCN2CCC(O)CC2)c(=O)c2cc(Cl)ccc12" ?
Found: -35.9

Lookup: growth for "O=C1/C(=C/c2ccc(C(F)(F)F)cc2)COc2ccc(O)c(O)c21" ?
Found: -26.1

Lookup: growth for "O=S1(=O)NCCCN1CCNc1nccc(-c2c(-c3cccc(O)c3)nc3sccn23)n1" ?
Found: 73.3

Lookup: growth for "OCc1cccc2ccccc12" ?
Found: 93.5

Lookup: growth for "Cc1cccc2c(=O)c3c(sc12)c(NCCNCCO)nc1ccccc13" ?
Found: -58.4

Lookup: growth for "COc1cccc(/C=N/NC(=O)c2ccccc2N2CCCC2)c1O" ?
Found: 4.58

Lookup: growth for "CCNC(=O)OCCc1c2ccccc2nc2ccccc12" ?
Found: 95.1

Lookup: growth for "Cn1cc(-c2csc(-c3cn(C)c4ncccc34)n2)c2cc(F)cnc21" ?
Found: 86.4

Lookup: growth for O=C1N(Cc2ccccc2Cl)c2ccccc2C12NN=C(c1ccccc1)S2 (configuration not stated) ?
Found: 58.5

Lookup: growth for "c1ccc(-c2[nH]c3ccccc3c2-c2ccccc2)cc1" ?
Found: 78.7

Lookup: growth for "COC(=O)c1ccc2c(c1)nc(-c1ccc(Cl)cc1)n2-c1cc(C(C)(C)C)[nH]n1" ?
Found: 14.9
